Target: G12C-mutant human KRAS (amino acid residues 1-188) (Homo sapiens, UniProt P01116, G12C)
Construct: G12D or G12C-mutant human KRAS (amino acid residues 1-188) with FLAG tag; made in house; host or cells: E. coli
Sequence (P01116 1-188 isoform P01116-2 G12C): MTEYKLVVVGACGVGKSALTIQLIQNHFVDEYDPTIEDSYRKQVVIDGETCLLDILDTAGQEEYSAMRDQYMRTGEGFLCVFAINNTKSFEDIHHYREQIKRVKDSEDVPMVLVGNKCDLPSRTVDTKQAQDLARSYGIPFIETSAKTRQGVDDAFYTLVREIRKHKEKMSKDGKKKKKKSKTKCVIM
Experiment: KRAS Binding Disruption Assay (AlphaScreen; biotinylated KRpep-2d analogue or RAF1-RBD), G12C
Conditions: geometric mean, read-out: KRAS GMean IC50 (uM) MUTATION: G12C
REPORTED ENDPOINT: IC50

Some molecules with known IC50 results, for comparison:
molecule="OCCCOc1nc(N2C[C@H]3CC[C@@H](C2)N3)c2ccc(-c3cc(O)cc4ccccc34)c(F)c2n1 [P-0652]" reported_endpoint=IC50 measured_result="10 to 100 µM"
molecule="Oc1cc(-c2ccc3c(N4C[C@H]5CC[C@@H](C4)N5)nc(N4CC(O)(C5CC5)C4)nc3c2F)c2ccccc2c1 [P-0636]" reported_endpoint=IC50 measured_result="0.0001 to 10 µM"
molecule="CN1CCC[C@H]1COc1nc(N2C[C@H]3CC[C@@H](C2)N3)c2ccc(-c3cc(N)nc4ccccc34)c(F)c2n1 [P-0760]" reported_endpoint=IC50 measured_result="10 to 100 µM"
molecule="Cc1cccc2c(-c3c(F)cc4c(N5C[C@H]6CC[C@@H](C5)N6)nc(OC[C@@H]5CCCN5C)nc4c3F)c[nH]c12 [P-0795]" reported_endpoint=IC50 measured_result="10 to 100 µM"
molecule="CN(C)C(C)(C)COc1nc(N2C[C@H]3CC[C@@H](C2)N3)c2ccc(-c3cc(O)cc4ccccc34)c(F)c2n1 [P-0736]" reported_endpoint=IC50 measured_result="10 to 100 µM"
molecule="Cc1cccc2cc(O)cc(-c3c(F)cc4c(N5C[C@H]6CC[C@@H](C5)N6)nc(OCC56CCCN5CCC6)nc4c3F)c12 [P-0088]" reported_endpoint=IC50 measured_result="0.0001 to 10 µM"
molecule="CN(C)CC(=O)N1[C@@H]2CC[C@H]1CN(c1nc(OCC34CCCN3CCC4)nc3cc(-c4cc(O)cc5ccccc45)ccc13)C2 [P-0066]" reported_endpoint=IC50 measured_result="0.0001 to 10 µM"
molecule="Oc1cc(-c2ccc3c(C4C[C@H]5CC[C@@H](C4)N5)nc(OCC45CCCN4CCC5)nc3c2)c2ccccc2c1 (some centres unmarked) [P-0053]" reported_endpoint=IC50 measured_result="10 to 100 µM"
molecule="Fc1cc2c(N3C[C@H]4CC[C@@H](C3)N4)nc(OCC34CCCN3CCC4)nc2c(F)c1-c1c[nH]c2ccc(F)c(Cl)c12 [P-0679]" reported_endpoint=IC50 measured_result="0.0001 to 10 µM"
molecule="CN1CCC[C@H]1COc1nc(N2C[C@H]3CC[C@@H](C2)N3)c2cc(F)c(-c3c[nH]c4c(Cl)cccc34)c(F)c2n1 [P-0800]" reported_endpoint=IC50 measured_result="100 to 1000 µM"

Requested read-out IC50, target or system G12C-mutant human KRAS (amino acid residues 1-188) (Homo sapiens, UniProt P01116, G12C), entry COC1CN(c2nc(N3C[C@H]4CC[C@@H](C3)N4)c3ccc(-c4cc(O)cc5ccccc45)c(F)c3n2)C1 [P-0658]
100 to 1000 µM

And the next one, CN(C)C1(C(N)=O)CN(c2nc(N3C[C@H]4CC[C@@H](C3)N4)c3ccc(-c4cc(O)cc5ccccc45)c(F)c3n2)C1 [P-0640] ?
10 to 100 µM

And the next one, Oc1cc(-c2ccc3c(N4C[C@H]5CC[C@@H](C4)N5)nc(OC[C@@]45CCCN4C[C@H](F)C5)nc3c2F)c2c(Cl)cccc2c1 [P-0510] ?
0.0001 to 10 µM

And the next one, CN(C)C1CN(c2nc(N3C[C@H]4CC[C@@H](C3)N4)c3ccc(-c4cc(O)cc5ccccc45)c(F)c3n2)C1 [P-0794] ?
10 to 100 µM

Data provenance: patent US20230081426A1
